Source: patent EP1184030A1

Kindly supply the reported Bacteriostatic activity (concentration needed for at least 80% reduction in growth) values for the records listed here.
- Test system: Staphylococcus epidermidis Ax25
- measurement_protocol: MIC microtiter plate test, axilla bacteria
- Format: cell-based
- cond: Table 8; S. epidermidis; 24 hours

Look over these answered cases.
• CC(C)=CCCC(C)=CCCC(C)=CCO = 0.0156 percent (w/v)
• COC1CC(C2CC3CC2C(C)C3(C)C)CCC1O (single isomer, unassigned; peak b) [Peak B] = 0.0023 percent (w/v)
• Oc1cc(Cl)ccc1Oc1ccc(Cl)cc1Cl = 0.000015 percent (w/v)

Now for a further molecule.
Query string: Quick check: Bacteriostatic activity (concentration needed for at least 80% reduction in growth) on Staphylococcus epidermidis Ax25, item COC1CC(C2CC3CC2C(C)C3(C)C)CCC1O (single isomer, unassigned; peak a) [Peak A] ?
Result string: 0.0040 percent (w/v)

###

- Test system: Ax 15 Corynebacterium jeikeium
- measurement_protocol: MIC microtiter plate test, axilla bacteria
- Type: cell-based
- cond: Table 8; Corynebact. Ax15; 24 hours
reported_endpoint: Bacteriostatic activity (concentration needed for at least 80% reduction in growth)

• COC1CC(C2CC3CC2C(C)C3(C)C)CCC1O (single isomer, unassigned; peak b) [Peak B] = 0.0028 percent (w/v)
• Oc1cc(Cl)ccc1Oc1ccc(Cl)cc1Cl = 0.0030 percent (w/v)

Below are some compounds; for each one, tell me its Bacteriostatic activity (concentration needed for at least 80% reduction in growth).
1. CC(C)=CCCC(C)=CCCC(C)=CCO
2. COC1CC(C2CC3CC2C(C)C3(C)C)CCC1O (single isomer, unassigned; peak a) [Peak A]

Result string:
0.0156 percent (w/v)
0.0048 percent (w/v)

###

- measurement_protocol: Vapour pressure
- Format: physicochemical
Kindly supply the reported vapour pressure values for the records listed here.
Answers are plain numbers, in µg/L.

• C=CCc1ccc(O)c(OC)c1 [Eugenol] = 109

Now for a further compound.
Query string: Suppose we examine the compound CC(C)=CCCC(C)=CCCC(C)=CCO [Farnesol, 3,7,11-trimethyl-2,6,10-dodecatrien-1-ol] ; what vapour pressure value has been reported?
Result string: 1.35

###

- measurement_protocol: Vapour pressure
- Assay type: physicochemical
- Source text: Odoriferous substances are by definition volatile compounds which evaporate from the skin and therefore loose their deodorising effect. Furthermore small water-soluble fragrance compounds can get dissolved in sweat and are thus rapidly diluted under conditions of high sweat secretion which further reduces the duration of the deodorising effect. […]
reported_endpoint: vapour pressure

• CC1C2CC(CC2C2CCC(O)CC2)C1(C)C (stereo not drawn) = about 2.2 µg/L
• CC1C2CC(CC2C2CCCCC2O)C1(C)C (stereo not drawn) = about 2.2 µg/L
• CC1C2CC(CC2C2CCCC(O)C2)C1(C)C (stereo not drawn) = about 2.2 µg/L
